System tested: Cytochrome P450 1B1 (Homo sapiens, UniProt Q16678)
Sequence (Q16678 whole entry): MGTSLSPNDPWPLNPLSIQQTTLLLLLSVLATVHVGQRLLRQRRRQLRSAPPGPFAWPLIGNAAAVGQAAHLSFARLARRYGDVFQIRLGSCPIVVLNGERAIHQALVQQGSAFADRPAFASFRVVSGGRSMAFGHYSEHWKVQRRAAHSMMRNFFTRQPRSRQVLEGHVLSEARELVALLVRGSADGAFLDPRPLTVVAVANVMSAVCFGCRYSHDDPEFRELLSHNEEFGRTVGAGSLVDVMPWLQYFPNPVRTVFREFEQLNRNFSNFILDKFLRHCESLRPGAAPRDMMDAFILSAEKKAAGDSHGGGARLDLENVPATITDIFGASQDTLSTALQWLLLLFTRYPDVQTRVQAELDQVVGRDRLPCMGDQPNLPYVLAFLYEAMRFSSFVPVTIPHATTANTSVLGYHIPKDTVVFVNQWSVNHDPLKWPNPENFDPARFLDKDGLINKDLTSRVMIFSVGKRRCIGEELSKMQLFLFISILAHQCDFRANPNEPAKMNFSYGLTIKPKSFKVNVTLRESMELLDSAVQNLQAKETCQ
Assay text: Potency index, ratio of IC50 of ANF to IC50 of compound for inhibition of human recombinant CYP1B1
Condition details: read-out: Ratio IC50

{"Chem smiles": "COc1ccc(OC)c2c1c(OC)cc1c(=O)cc(-c3cncc(Br)c3)oc12", "System tested": "Cytochrome P450 1B1 (Homo sapiens, UniProt Q16678)", "selectivity ratio": 5}
{"Chem smiles": "COc1ccc(OC)c2c1c(OC)cc1c(=O)cc(-c3cncc(F)c3)oc12", "System tested": "Cytochrome P450 1B1 (Homo sapiens, UniProt Q16678)", "selectivity ratio": 5}
{"Chem smiles": "COc1ccc(OC)c2c1c(OC)cc1c(=O)cc(-c3ccc(F)cn3)oc12", "System tested": "Cytochrome P450 1B1 (Homo sapiens, UniProt Q16678)", "selectivity ratio": 84}
{"Chem smiles": "COc1ccc(OC)c2c1c(OC)cc1c(=O)cc(-c3cncc(C)c3)oc12", "System tested": "Cytochrome P450 1B1 (Homo sapiens, UniProt Q16678)", "selectivity ratio": 5}

###

IC50 values by entry
System tested: Cytochrome P450 1B1 (Homo sapiens, UniProt Q16678)
Sequence (Q16678 whole entry): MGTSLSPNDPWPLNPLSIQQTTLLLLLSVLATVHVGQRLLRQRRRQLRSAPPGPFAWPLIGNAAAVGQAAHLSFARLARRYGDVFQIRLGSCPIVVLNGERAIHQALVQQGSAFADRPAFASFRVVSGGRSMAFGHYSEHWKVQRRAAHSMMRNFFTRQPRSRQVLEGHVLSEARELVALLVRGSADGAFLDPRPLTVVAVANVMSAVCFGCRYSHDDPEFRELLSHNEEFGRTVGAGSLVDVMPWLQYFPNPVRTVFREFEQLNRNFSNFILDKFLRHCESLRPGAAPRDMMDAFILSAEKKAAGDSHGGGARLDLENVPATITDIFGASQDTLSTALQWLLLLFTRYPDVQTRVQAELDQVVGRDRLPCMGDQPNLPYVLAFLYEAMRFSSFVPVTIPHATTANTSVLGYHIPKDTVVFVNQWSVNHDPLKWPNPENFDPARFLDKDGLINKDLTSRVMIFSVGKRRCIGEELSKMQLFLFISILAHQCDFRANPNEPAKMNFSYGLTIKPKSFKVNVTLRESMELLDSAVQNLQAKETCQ
Assay text: Inhibition of recombinant human CYP1B1 using 7-ethoxyresorufin as substrate after 35 mins in presence of NADP+ by EROD assay

{"Chem smiles": "COc1ccc(OC)c2c1c(OC)cc1c(=O)cc(-c3cncc(C(=O)O)c3)oc12", "System tested": "Cytochrome P450 1B1 (Homo sapiens, UniProt Q16678)", "IC50, nM": 30.1}
{"Chem smiles": "COc1ccc(OC)c2c1c(OC)cc1c(=O)cc(-c3ccnc(Cl)c3)oc12", "System tested": "Cytochrome P450 1B1 (Homo sapiens, UniProt Q16678)", "IC50, nM": 1.1}
{"Chem smiles": "COc1ccc(OC)c2c1c(OC)cc1c(=O)cc(-c3ccncc3N)oc12", "System tested": "Cytochrome P450 1B1 (Homo sapiens, UniProt Q16678)", "IC50, nM": 24.8}
{"Chem smiles": "COc1ccc(OC)c2c1c(OC)cc1c(=O)cc(-c3cccc(F)n3)oc12", "System tested": "Cytochrome P450 1B1 (Homo sapiens, UniProt Q16678)", "IC50, nM": 0.38}
{"Chem smiles": "COc1ccc(OC)c2c1c(OC)cc1c(=O)cc(-c3cc(Cl)ccn3)oc12", "System tested": "Cytochrome P450 1B1 (Homo sapiens, UniProt Q16678)", "IC50, nM": 0.84}
{"Chem smiles": "COc1ccc(OC)c2c1c(OC)cc1c(=O)cc(-c3c[nH]c4ccccc34)oc12", "System tested": "Cytochrome P450 1B1 (Homo sapiens, UniProt Q16678)", "IC50, nM": 4.1}
{"Chem smiles": "COc1ccc(OC)c2c1c(OC)cc1c(=O)cc(-c3c[nH]c4ncccc34)oc12", "System tested": "Cytochrome P450 1B1 (Homo sapiens, UniProt Q16678)", "IC50, nM": 189}
{"Chem smiles": "COc1ccc(OC)c2c1c(OC)cc1c(=O)cc(-c3cncc(N)c3)oc12", "System tested": "Cytochrome P450 1B1 (Homo sapiens, UniProt Q16678)", "IC50, nM": 22.9}
{"Chem smiles": "COc1ccc(OC)c2c1c(OC)cc1c(=O)cc(-c3cccc(N4CCOCC4)c3)oc12", "System tested": "Cytochrome P450 1B1 (Homo sapiens, UniProt Q16678)", "IC50, nM": 14.9}
{"Chem smiles": "COc1ccc(OC)c2c1c(OC)cc1c(=O)cc(-c3cc4ccccc4o3)oc12", "System tested": "Cytochrome P450 1B1 (Homo sapiens, UniProt Q16678)", "IC50, nM": 0.87}

###

System tested: UniProt:P05177
Sequence (P05177 whole entry): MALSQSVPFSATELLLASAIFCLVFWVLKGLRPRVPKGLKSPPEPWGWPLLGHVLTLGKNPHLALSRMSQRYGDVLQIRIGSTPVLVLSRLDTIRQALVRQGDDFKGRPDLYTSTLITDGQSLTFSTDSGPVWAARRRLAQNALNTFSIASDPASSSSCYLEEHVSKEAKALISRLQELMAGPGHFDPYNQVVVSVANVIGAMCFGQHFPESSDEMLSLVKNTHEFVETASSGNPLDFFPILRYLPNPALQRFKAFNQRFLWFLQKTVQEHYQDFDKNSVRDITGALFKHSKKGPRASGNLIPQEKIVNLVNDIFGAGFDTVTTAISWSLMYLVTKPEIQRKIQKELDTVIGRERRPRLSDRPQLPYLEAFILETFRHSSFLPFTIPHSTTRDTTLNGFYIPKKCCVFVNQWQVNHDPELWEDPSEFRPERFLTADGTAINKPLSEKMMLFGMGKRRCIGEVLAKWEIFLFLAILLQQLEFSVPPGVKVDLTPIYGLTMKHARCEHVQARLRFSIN
Assay text: Inhibition of recombinant human CYP1A2 using 7-ethoxyresorufin as substrate after 50 mins in presence of NADP+ by EROD assay
IC50 values by entry
Measured quantity: IC50 (nM)

{"Chem smiles": "COc1ccc(OC)c2c1c(OC)cc1c(=O)cc(-c3cncc(N)c3)oc12", "Reading unit": "nM", "Lt gt eq": "=", "Result": 628}
{"Chem smiles": "COc1ccc(OC)c2c1c(OC)cc1c(=O)cc(-c3ccc(F)cn3)oc12", "Reading unit": "nM", "Lt gt eq": ">", "Result": 1000}
{"Chem smiles": "COc1ccc(OC)c2c1c(OC)cc1c(=O)cc(-c3cncc(C(=O)O)c3)oc12", "Reading unit": "nM", "Lt gt eq": ">", "Result": 1000}
{"Chem smiles": "COc1ccc(OC)c2c1c(OC)cc1c(=O)cc(-c3cccc(Cl)n3)oc12", "Reading unit": "nM", "Lt gt eq": "=", "Result": 349}
{"Chem smiles": "COc1ccc(OC)c2c1c(OC)cc1c(=O)cc(-c3ccco3)oc12", "Reading unit": "nM", "Lt gt eq": "=", "Result": 67.2}

###

Species: Homo sapiens
Assay text: Selectivity index, ratio of IC50 for recombinant human CYP1A2 to IC50 for recombinant human CYP1B1

{"Chem smiles": "COc1ccc(OC)c2c1c(OC)cc1c(=O)cc(-c3ccc(N)cn3)oc12", "Lt gt eq": ">", "Ratio IC50": 167}
{"Chem smiles": "COc1ccc(OC)c2c1c(OC)cc1c(=O)cc(-c3ccc(Br)cn3)oc12", "Lt gt eq": "=", "Ratio IC50": 479}
{"Chem smiles": "COc1ccc(OC)c2c1c(OC)cc1c(=O)cc(-c3ccc(Cl)cn3)oc12", "Lt gt eq": "=", "Ratio IC50": 1490}
{"Chem smiles": "COc1ccc(OC)c2c1c(OC)cc1c(=O)cc(-c3cccc(C)n3)oc12", "Lt gt eq": "=", "Ratio IC50": 124}
{"Chem smiles": "COc1ccc(OC)c2c1c(OC)cc1c(=O)cc(-c3ccc4ncccc4c3)oc12", "Lt gt eq": ">", "Ratio IC50": 556}
{"Chem smiles": "COc1ccc(OC)c2c1c(OC)cc1c(=O)cc(-c3cccc(Cl)n3)oc12", "Lt gt eq": "=", "Ratio IC50": 1160}
{"Chem smiles": "COc1ccc(OC)c2c1c(OC)cc1c(=O)cc(-c3ccnc(Br)c3)oc12", "Lt gt eq": ">", "Ratio IC50": 2170}
{"Chem smiles": "COc1ccc(OC)c2c1c(OC)cc1c(=O)cc(-c3ccnc(N)c3)oc12", "Lt gt eq": ">", "Ratio IC50": 48.5}
{"Chem smiles": "COc1ccc(OC)c2c1c(OC)cc1c(=O)cc(-c3cscn3)oc12", "Lt gt eq": "=", "Ratio IC50": 11.2}
{"Chem smiles": "COc1ccc(OC)c2c1c(OC)cc1c(=O)cc(-c3ccnc(F)c3)oc12", "Lt gt eq": "=", "Ratio IC50": 557}
{"Chem smiles": "COc1ccc(OC)c2c1c(OC)cc1c(=O)cc(-c3cc(Cl)cc(N4CCN(C)CC4)c3)oc12", "Lt gt eq": ">", "Ratio IC50": 1.9}
{"Chem smiles": "COc1ccc(OC)c2c1c(OC)cc1c(=O)cc(-c3ccc4cc[nH]c4c3)oc12", "Lt gt eq": ">", "Ratio IC50": 1050}
{"Chem smiles": "COc1ccc(OC)c2c1c(OC)cc1c(=O)cc(-c3cccc(N)n3)oc12", "Lt gt eq": ">", "Ratio IC50": 154}
{"Chem smiles": "COc1ccc(OC)c2c1c(OC)cc1c(=O)cc(-c3cncc(C)c3)oc12", "Lt gt eq": "=", "Ratio IC50": 124}
{"Chem smiles": "COc1ccc(OC)c2c1c(OC)cc1c(=O)cc(-c3cccs3)oc12", "Lt gt eq": "=", "Ratio IC50": 8.4}
{"Chem smiles": "COc1ccc(OC)c2c1c(OC)cc1c(=O)cc(-c3cncc(Br)c3)oc12", "Lt gt eq": "=", "Ratio IC50": 674}
{"Chem smiles": "COc1ccc(OC)c2c1c(OC)cc1c(=O)cc(-c3ccc4[nH]cnc4c3)oc12", "Lt gt eq": ">", "Ratio IC50": 64.1}
{"Chem smiles": "COc1ccc(OC)c2c1c(OC)cc1c(=O)cc(-c3cc4ccccc4o3)oc12", "Lt gt eq": ">", "Ratio IC50": 1150}
{"Chem smiles": "COc1ccc(OC)c2c1c(OC)cc1c(=O)cc(-c3ccccn3)oc12", "Lt gt eq": "=", "Ratio IC50": 179}
{"Chem smiles": "COc1ccc(OC)c2c1c(OC)cc1c(=O)cc(-c3cccnc3Br)oc12", "Lt gt eq": "=", "Ratio IC50": 15.1}
{"Chem smiles": "COc1ccc(OC)c2c1c(OC)cc1c(=O)cc(-c3cncc(C(=O)O)c3)oc12", "Lt gt eq": ">", "Ratio IC50": 33.2}
{"Chem smiles": "COc1ccc(OC)c2c1c(OC)cc1c(=O)cc(-c3ccc4[nH]ncc4c3)oc12", "Lt gt eq": ">", "Ratio IC50": 500}
{"Chem smiles": "COc1ccc(OC)c2c1c(OC)cc1c(=O)cc(-c3cccnc3)oc12", "Lt gt eq": "=", "Ratio IC50": 117}
{"Chem smiles": "COc1ccc(OC)c2c1c(OC)cc1c(=O)cc(-c3cncc(F)c3)oc12", "Lt gt eq": "=", "Ratio IC50": 144}
{"Chem smiles": "COc1ccc(OC)c2c1c(OC)cc1c(=O)cc(-c3c[nH]c4ccccc34)oc12", "Lt gt eq": ">", "Ratio IC50": 244}
{"Chem smiles": "COc1ccc(OC)c2c1c(OC)cc1c(=O)cc(-c3cccnc3N)oc12", "Lt gt eq": ">", "Ratio IC50": 5.7}
{"Chem smiles": "COc1ccc(OC)c2c1c(OC)cc1c(=O)cc(-c3cccc(N4CCOCC4)c3)oc12", "Lt gt eq": ">", "Ratio IC50": 67.1}
{"Chem smiles": "COc1ccc(OC)c2c1c(OC)cc1c(=O)cc(-c3cccc(O)n3)oc12", "Lt gt eq": ">", "Ratio IC50": 130}
{"Chem smiles": "COc1ccc(OC)c2c1c(OC)cc1c(=O)cc(-c3ccc4ccccc4n3)oc12", "Lt gt eq": ">", "Ratio IC50": 1000}
{"Chem smiles": "COc1ccc(OC)c2c1c(OC)cc1c(=O)cc(-c3ccncc3)oc12", "Lt gt eq": "=", "Ratio IC50": 166}
{"Chem smiles": "COc1ccc(OC)c2c1c(OC)cc1c(=O)cc(-c3ccc(N)nc3)oc12", "Lt gt eq": "=", "Ratio IC50": 110}
{"Chem smiles": "COc1ccc(OC)c2c1c(OC)cc1c(=O)cc(-c3cccc(F)n3)oc12", "Lt gt eq": "=", "Ratio IC50": 1760}
{"Chem smiles": "COc1ccc(OC)c2c1c(OC)cc1c(=O)cc(-c3c[nH]c4ncccc34)oc12", "Lt gt eq": ">", "Ratio IC50": 5.3}
